assay: Pharmacokinetic study in rats after single oral dose; assay type: in vivo, male Sprague-Dawley rats; conditions: male, Sprague-Dawley, rat, plasma, po, 30 mg/kg
READOUT_KIND: AUC(0-inf) (ng·h/mL)

NC1=NCCN1CC(=O)O
91700

----------
test: Pharmacokinetic study in mice after single oral dose; assay type: in vivo, male C57BL/6 mice; conditions: male, C57BL/6, mouse, plasma, po, 30 mg/kg
READOUT_KIND: Cmax (µg/mL)

NC1=NCCN1CC(=O)O [cyclocreatine, 1-Carboxymethyl-2-iminoimidazolidine]
5.62
